- method: Extracellular (serum) nutrient levels by mass spectrometry (LC-MS, GC-MS, ICP-MS)
- test conditions: female, human, serum
measured endpoint: concentration at 3 months (ng/mL)
Give bare numbers, in ng/mL.

In: For the compound Nc1nc2ncc(CNc3ccc(C(=O)N[C@@H](CCC(=O)O)C(=O)O)cc3)nc2c(=O)[nH]1 [Folate] , what concentration at 3 months is on record?
Out: 1.2

* * *

Assignment: determine reported Follow-up Biomarker level for the given molecules.
- method: NutriPro test: serum, RBC and WBC nutrient values before and after ATB / customized blend
- Type: in vivo, human
- test conditions: person one; serum; after customized blend
One number for each entry, in ng/mL.

Give one value of Follow-up Biomarker level per listed molecule.
1. [Mg]
2. [Ca]
3. [Cu]

Out:
[25200, 104000, 1690]

Give one value of Follow-up Biomarker level per listed molecule.
1. C=C1CC[C@H](O)C/C1=C/C=C1\CCC[C@]2(C)[C@@H]([C@H](C)CCCC(C)C)CC[C@@H]12
2. Nc1nc2ncc(CNc3ccc(C(=O)N[C@@H](CCC(=O)O)C(=O)O)cc3)nc2c(=O)[nH]1 [Folate]
3. COC1=C(OC)C(=O)C(C/C=C(\C)CC/C=C(\C)CC/C=C(\C)CC/C=C(\C)CC/C=C(\C)CC/C=C(\C)CC/C=C(\C)CC/C=C(\C)CC/C=C(\C)CCC=C(C)C)=C(C)C1=O
4. O=C(O)c1cccnc1

Out:
8.7
14.3
1800
70.1
